- EXPERIMENTAL_SYSTEM: recombinant human AMPK complex 1 (containing α1β1γ1) (Homo sapiens, UniProt Q13131+Q9Y478)
- Sequence (Q13131 whole entry): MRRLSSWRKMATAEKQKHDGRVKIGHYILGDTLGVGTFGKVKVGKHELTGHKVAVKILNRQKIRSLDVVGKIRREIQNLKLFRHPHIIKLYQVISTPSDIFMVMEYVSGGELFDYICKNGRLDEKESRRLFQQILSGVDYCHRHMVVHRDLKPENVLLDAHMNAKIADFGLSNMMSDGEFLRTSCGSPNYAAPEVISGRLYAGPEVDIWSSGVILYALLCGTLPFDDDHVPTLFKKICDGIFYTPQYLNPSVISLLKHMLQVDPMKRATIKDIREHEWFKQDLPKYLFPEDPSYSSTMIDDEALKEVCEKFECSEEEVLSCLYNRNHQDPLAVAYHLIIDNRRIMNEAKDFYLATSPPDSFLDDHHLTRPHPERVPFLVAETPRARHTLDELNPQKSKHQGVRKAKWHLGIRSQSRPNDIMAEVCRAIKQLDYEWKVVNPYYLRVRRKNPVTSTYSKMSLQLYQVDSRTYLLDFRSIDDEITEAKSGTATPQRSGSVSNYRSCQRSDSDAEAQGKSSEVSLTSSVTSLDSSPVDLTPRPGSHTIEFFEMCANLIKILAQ
- Sequence (Q9Y478 whole entry): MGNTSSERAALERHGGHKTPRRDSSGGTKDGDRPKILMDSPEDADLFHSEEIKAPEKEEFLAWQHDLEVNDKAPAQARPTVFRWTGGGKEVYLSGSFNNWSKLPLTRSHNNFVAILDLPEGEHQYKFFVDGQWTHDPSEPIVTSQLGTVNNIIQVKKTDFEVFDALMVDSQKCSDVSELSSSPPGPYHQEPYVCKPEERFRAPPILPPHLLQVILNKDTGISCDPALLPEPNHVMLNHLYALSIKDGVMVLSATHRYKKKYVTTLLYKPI
- Sequence (P54619 whole entry partner): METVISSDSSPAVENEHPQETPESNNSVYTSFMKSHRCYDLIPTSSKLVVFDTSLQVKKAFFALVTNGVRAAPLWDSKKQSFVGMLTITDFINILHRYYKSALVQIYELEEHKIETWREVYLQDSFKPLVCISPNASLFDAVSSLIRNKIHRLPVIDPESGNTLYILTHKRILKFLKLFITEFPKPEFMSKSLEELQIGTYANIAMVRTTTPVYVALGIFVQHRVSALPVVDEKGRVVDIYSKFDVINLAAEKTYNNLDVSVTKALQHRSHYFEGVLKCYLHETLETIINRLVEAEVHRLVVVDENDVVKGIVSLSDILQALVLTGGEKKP
- TEST: […] (in vitro AMPK activation assay)
- Assay type: biochemical
- SETTINGS: recombinant human AMPK complex 1 (α1β1γ1); basal activity subtracted; read-out: % Maximum AMP Activation of human AMPK Complex 1
Where a name gives a salt, the structure may show the parent alone.
MEASURED_PARAMETER: Emax

• Cc1ccc(Oc2nc3cc(-c4ccc(-c5cccc(Cl)c5)cc4)c(Cl)cc3[nH]2)cc1C(=O)O [Example 186] = > 80%
• O=C(O)c1ccc(Oc2nc3cc(-c4ccc(-c5ccccc5)cc4)c(Cl)cc3[nH]2)cc1C(=O)O [Example 36] = > 80%
• Cc1ccc(Oc2nc3cc(-c4ccc5ccnc(O)c5c4)c(Cl)cc3[nH]2)cc1C(=O)O [Example 238] = > 80%
• Cc1ccc(Oc2nc3cc(-c4ccc5c(c4)CCC5=O)c(Cl)cc3[nH]2)cc1C(=O)O [Example 266] = > 80%
• Cc1cc(Oc2nc3cc(-c4ccc5c(ccn5C)c4)c(Cl)cc3[nH]2)cc(C(=O)O)c1C [Example 311] = > 80%
• Cc1ccc(Oc2nc3cc(-c4ccc5c(ccc(=O)n5C)c4)c(Cl)cc3[nH]2)cc1C(=O)O [Example 234] = > 80%
• COc1ccccc1C#Cc1cc2nc(Oc3ccc(C)c(C(=O)O)c3)[nH]c2cc1Cl [Example 106] = > 80%
• CCCc1ccc(-c2cc3nc(Oc4ccc(C)c(C(=O)O)c4)[nH]c3cc2Cl)cc1 [Example 347, trifluoroacetate] = > 80%

Source: patent US8394969B2
